- Tested on: UACC-62
- protocol: NCI tumour cell line growth inhibition, 48 h
Active and inactive are the calls of the source. Cut-off read from the data, not from the text of the source: active = GI50 up to about 1.1 µM and inactive = higher.
Just give me one of these, please: active, inactive

NC(CC(=O)OCc1ccccc1)C(=O)OCc1ccccc1 (stereo not given): inactive
C/C(CCN(C)C)=N\OC(=O)c1ccccc1: inactive
CC(=O)O[C@@H](C1C[C@@H](C)[C@H]2[C@@](O)(O1)[C@H](O)[C@@]1(C)C3=CC[C@H]4C(C)(C)[C@@H](OC5OCC(O)C(O)C5O)CC[C@@]45C[C@@]35CC[C@]21C)C(C)(C)O (stereo not given in full): inactive

# evaluate next
Dear all, I need the recorded test outcome for "CCOc1cccc(-c2cc(O)c3cc4c(cc3n2)OCO4)c1" , thank you. active
